Values compiled from the supplement of paper PMC11780869.

Listing: cleaved RNA product abundance of selected sequences
- Test system: Bacillus subtilis
- assay_text: cleaved RNA product abundance (RNA/gDNA barcode ratio) relative to median wild-type variant (ratio to wild type); higher = more accumulation of the downstream cleavage product
- conditions: experiment (reporter, strain, medium): exp 8a: truncated aprE reporter, strain BJT201 with 2% xylose (RNase J1 expressed); cleavage site: glnRA (positions -5 to +31 mutated)

>  <residues>
CGACATGTCCCGCTTCTTTCATTAATCCGTTTGCAACTGTTTTGATATATACATTTACCTTTTAAGAGGAGGAAT

>  <cleaved RNA product abundance>
0.421

$$$$
>  <residues>
CGACATGTCCCGCTTCTTTCATTAATCAGTTAGCAACTGTTTTGCTATATACATTTACATTTTAAGAGGAGGAAT

>  <cleaved RNA product abundance>
0.595

$$$$
>  <residues>
CGACATGTCCCGCTTCTTTCATTAATCTGTTAGCAACTGTTTTGCTATATACATTTACCATTTAAGAGGAGGAAT

>  <cleaved RNA product abundance>
2.04

$$$$
>  <residues>
CGACATGTCCCGCTTCTTTCATTAATCCGTTAGCAATTATTTTGCTATATACATTTACCTTTTAAGAGGAGGAAT

>  <cleaved RNA product abundance>
1.14

$$$$
>  <residues>
CGACATGTCCCGCTTCTTTCATTAATCCGTTAGCAACAGTTTTGCTATATATATTTACCTTTTAAGAGGAGGAAT

>  <cleaved RNA product abundance>
0.588

$$$$
>  <residues>
CGACATGTCCCGCTTCTTTCATTAATCCGTGAGCAACTGTTTTGCTATATACATTTACTTTTTAAGAGGAGGAAT

>  <cleaved RNA product abundance>
0.477

$$$$
>  <residues>
CGACATGTCCCGCTTCTTTCATTAATCCGATAGCAACTGTTTTGCTATATACATTGACCTTTTAAGAGGAGGAAT

>  <cleaved RNA product abundance>
0.721

$$$$
>  <residues>
CGACATGTCCCGCTTCTTTCATTAATCCTTTAGCAACTGTCTTGCTATATACATTTACCTTTTAAGAGGAGGAAT

>  <cleaved RNA product abundance>
0.661

$$$$
>  <residues>
CGACATGTCCCGCTTCTTTCATTAATCCGTTAGCAACTGTTTTGATATATACATCTACCTTTTAAGAGGAGGAAT

>  <cleaved RNA product abundance>
0.44

$$$$
>  <residues>
CGACATGTCCCGCTTCTTTCATTAATCCGTTAGCAAATGTTTTGCTATATACAATTACCTTTTAAGAGGAGGAAT

>  <cleaved RNA product abundance>
1.76

$$$$
>  <residues>
CGACATGTCCCGCTTCTTTCATTAATACGTTAGCATCTGTTTTGCTATATACATTTACCTTTTAAGAGGAGGAAT

>  <cleaved RNA product abundance>
0.87

$$$$
>  <residues>
CGACATGTCCCGCTTCTTTCATTACTCCGTCAGCAACTGTTTTGCTATATACATTTACCTTTTAAGAGGAGGAAT

>  <cleaved RNA product abundance>
0.381

$$$$
>  <residues>
CGACATGTCCCGCTTCTTTCATTAATTCGTTAGCAACTGTTTTGCTATATACATTTGCCTTTTAAGAGGAGGAAT

>  <cleaved RNA product abundance>
0.536

$$$$
>  <residues>
CGACATGTCCCGCTTCTTTCATTAATCGGTTAGCAACTGTTTTGCTATATATATTTACCTTTTAAGAGGAGGAAT

>  <cleaved RNA product abundance>
0.947

$$$$
